- measured-on: C. elegans Slo-1a (Caenorhabditis elegans)
- Sequence (Q95V25 whole entry): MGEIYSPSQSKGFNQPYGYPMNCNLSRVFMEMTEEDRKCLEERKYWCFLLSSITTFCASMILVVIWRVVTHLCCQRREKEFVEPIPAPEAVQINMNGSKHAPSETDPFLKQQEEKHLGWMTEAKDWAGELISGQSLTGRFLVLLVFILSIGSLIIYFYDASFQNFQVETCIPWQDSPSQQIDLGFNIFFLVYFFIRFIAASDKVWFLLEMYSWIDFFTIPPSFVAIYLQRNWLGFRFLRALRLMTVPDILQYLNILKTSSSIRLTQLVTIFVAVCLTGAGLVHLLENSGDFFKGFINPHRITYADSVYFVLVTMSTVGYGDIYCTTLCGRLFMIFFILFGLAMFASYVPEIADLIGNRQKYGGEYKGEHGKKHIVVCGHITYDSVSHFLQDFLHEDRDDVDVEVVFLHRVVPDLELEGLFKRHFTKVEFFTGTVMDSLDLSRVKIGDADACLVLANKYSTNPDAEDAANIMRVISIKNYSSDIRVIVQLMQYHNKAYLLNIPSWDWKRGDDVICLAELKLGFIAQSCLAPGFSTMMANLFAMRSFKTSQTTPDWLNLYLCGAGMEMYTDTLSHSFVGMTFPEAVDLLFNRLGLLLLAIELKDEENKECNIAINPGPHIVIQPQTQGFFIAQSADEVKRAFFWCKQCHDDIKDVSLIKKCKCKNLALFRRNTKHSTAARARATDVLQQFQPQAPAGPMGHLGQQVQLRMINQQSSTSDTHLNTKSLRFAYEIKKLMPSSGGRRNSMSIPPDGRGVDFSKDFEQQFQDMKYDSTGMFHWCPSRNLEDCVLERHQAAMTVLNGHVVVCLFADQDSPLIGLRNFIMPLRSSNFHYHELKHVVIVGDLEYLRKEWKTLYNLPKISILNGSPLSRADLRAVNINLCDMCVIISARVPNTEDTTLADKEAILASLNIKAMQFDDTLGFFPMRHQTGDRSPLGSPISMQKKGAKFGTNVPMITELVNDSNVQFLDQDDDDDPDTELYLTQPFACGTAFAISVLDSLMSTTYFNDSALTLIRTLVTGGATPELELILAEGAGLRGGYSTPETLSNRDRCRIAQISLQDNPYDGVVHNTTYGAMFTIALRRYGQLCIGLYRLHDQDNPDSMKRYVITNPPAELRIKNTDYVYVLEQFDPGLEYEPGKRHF
- assay-remarks: In vitro assay 1: C. elegans Slo-1a, action at a recombinant C. elegans CHO cell line (membrane potential measurement)
- assay-conditions: CHO cells expressing C. elegans Slo-1a; voltage sensitive dye, FLIPR Tetra; negative decadic logarithm of EC50
quantity: pE50
Number only, no unit.

Examples with their reported pE50 follow.
| chemical-smiles | pE50 |
| --- | --- |
| COCCOCCOCCN(C)c1c(C(=O)N[C@H]2CCOc3ccccc32)cnc2c(-c3cc(Cl)cc(Cl)c3)c(C)nn12 | 8.2 |
| O=C(N[C@H]1CCOc2ccccc21)c1cnc2c(-c3ccc(F)c(F)c3)c(C(F)F)nn2c1C1CC1 | 7.7 |
| CCc1c(C(=O)N[C@H]2CCOc3ccccc32)cnc2c(-c3ccc(F)c(OC)c3F)c(C)nn12 | 8.9 |

pE50 in this record for Cc1c(C(=O)N[C@H]2CCc3ccccc32)cnc2c(-c3ccccc3Cl)cnn12 : 6.8

Notebook: Cc1ccc2c(c1)[C@@H](NC(=O)c1cnc3c(-c4cccc(C(F)(F)F)c4)c(C)nn3c1C(C)C)CCC2 , pE50 read as 7.2

// sample COc1c(F)cc(F)c(-c2c(C)nn3c(C4CC4)c(C(=O)N[C@H]4CCOc5ccccc54)cnc23)c1F , its pE50 was 9.2

The value of pE50 measured for the compound Cc1nn2c(C(C)C)c(C(=O)N[C@H]3CCOc4ccccc43)cnc2c1-c1cnn(CC(F)(F)F)c1 turned out to be 7.9

Form field pE50, entry CC(C)c1c(C(=O)N[C@H]2CCc3ccccc32)cnc2c(-c3cccc(C(F)(F)F)c3)cnn12 : 6.7

So for COc1ccc(F)c(-c2c(C)nn3c(C(C)C)c(C(=O)N[C@H]4CCOc5ccccc54)cnc23)c1Cl , the logged pE50 turned out to be 8.1

Just for reference, patent US11001590B2 is where these values come from.
